# credit: PubChem BioAssay (NCI)

Tested on: SF-295 CNS
Experiment: NCI-60 one-dose screen, 48 h
Conditions: 10 µM unless noted
This is part of a sample that, as a whole, favours compounds with a hit. Of some 83,000 tested, about 20% had one in any assay. Activity calls are given as the source filed them. The calls were made as follows: active = growth percent below 10; inactive = the rest.
Valid outcomes are listed here; reply with one: active, inactive

For orientation, consider the following solved cases.
# molecule, system-under-test, qualitative-label
data = [
    ("CCOC(=O)Cn1c(=O)c2c3ccccc3n(C)c2n2nnc(-c3ccccc3)c12", "SF-295 CNS", "inactive"),
    ("O=C(Cn1nnc2ccccc21)N/N=C/c1ccccc1F", "SF-295 CNS", "inactive"),
    ("CCOC(=O)c1c(C)c2c(n1C)CSc1cc(S(=O)(=O)c3ccccc3)c(=O)[nH]c1-2", "SF-295 CNS", "inactive"),
]

Per the assay record, what outcome was assigned to Nc1ccc([N+](=O)[O-])cc1N=C/C=C/c1ccccc1 ? inactive

Test call for this molecule, please: CCOC(=O)c1c(NC(=O)c2ccc(OC)cc2)sc2c(CN(C)C)c(O)ccc12 inactive

How did this test come out for COc1cc(C2Cc3ncccc3-c3[nH]c(=O)c4cccnc4c32)cc(OC)c1OC (centres undefined) ? active

For c1ccc2cc(Cn3c[n+](Cc4ccc5ccccc5c4)c4ccccc43)ccc2c1 , what call appears in the results of this test? active

Could you kindly confirm the outcome this assay logged for O=C(O)CCCc1cnc2c3sccc3nc(SCc3c(Cl)cccc3Cl)n12 ? inactive

* * *

Test system: HCT-15 colon
Assay: NCI-60 one-dose screen, 48 h (100 = growth as untreated, 0 = no growth, -100 = all killed)
Conditions: 10 µM unless noted
This is part of a sample that, as a whole, favours compounds with a hit. Of some 83,000 tested, about 20% had one in any assay.
measured-attribute: growth (%)
One number for each entry, in %.

Illustrative cases are given below, each with its answer.
# compound, growth / %
rows = [
    ("COc1ccc(C/C(C)=C(\\c2ccc(O)cc2)c2ccc(OCCN3CCCC3)cc2)cc1", 102),
    ("COc1ccc(C2=Nc3c/c(=C\\c4c(O)[nH]c5cc(Cl)ccc45)ccc3=N2)cc1", 55.8),
    ("CCOC(=O)c1c(NC(=O)c2ccc(C(C)(C)C)cc2)sc2cc(O)ccc12", 70.3),
    ("CCCCCn1sc(=O)n(Cc2ccc(CNC(=O)OCc3ccc4c(Cl)cc(Cl)c(O)c4n3)cc2)c1=O", 17.1),
    ("CN1CCN(CCOc2ccc(-c3cnc4c(-c5ccc(C(F)(F)F)cc5)cnn4c3)cc2)CC1", -33.6),
    ("Nc1ncnc2c1c(-c1ccc(Oc3ccccc3)cc1)nn2CC1SSCC1O (centres undefined)", 65.3),
    ("CCn1cc(C(=O)N/N=C/c2ccc(Br)cc2)c(=O)c2cc(F)c(N3CCNC(C)C3)c(F)c21 (centres undefined)", -18.9),
    ("C/C(=C(\\c1ccc(OCCN2CCCCCC2)cc1)c1ccc(OC(=O)Cc2ccccc2)cc1)c1ccc(Cl)cc1", -15.5),
]

// input: 5 compounds below; output: growth for each
1. Cc1cc(C(=O)Nc2cc(Nc3ncccc3-c3ncnc4nc[nH]c34)ccc2F)cc(C(F)(F)F)c1
2. CN1C(=O)N(C)C2C1NC(=S)N2/N=C/C=C/c1ccccc1[N+](=O)[O-] (centres undefined)
3. CCC/C(=N\NC(N)=O)C(OC)OC
4. C[C@@H](CO)[C@@H]1CC[C@]2(C(=O)N3CCN(C)CC3)CC[C@]3(C)[C@H](CC[C@@H]4[C@@]5(C)CC[C@H](O)C(C)(C)[C@@H]5CC[C@]43C)[C@@H]12
5. CC(=O)c1cc(-c2ccccc2N)n(-c2ccc3c(c2)OCO3)c1C

[60.1, 29, 105, 44.3, 13.4]

Batch request: growth for each of the following compounds.
1. COc1cccc2c(N=NC(=O)c3ccc(S(N)(=O)=O)cc3)c(O)[nH]c12
2. O=C1NC(=Nc2ccc(O)cc2)S/C1=C\c1cccs1
3. O[C@@H](c1cc(C(F)(F)F)nc2c(C(F)(F)F)cccc12)[C@H]1CCCCN1
4. COc1ccc2c(O)c(/C=C3\N=Nc4ccccc43)oc2c1C[C@H]1CCNC[C@H]1F
5. CC(=O)c1c(Nc2ccc(F)c(F)c2F)[nH]c2c(F)cc(F)cc2c1=O

1. 98.8
2. 20.9
3. 77.5
4. 33.6
5. 4.32

# input compound: CCOC(=O)c1cn2ncnc(Oc3ccc(NC(=O)NC4CC4)c(F)c3)c2c1C ; wanted: its growth 60.4
